metric.name: melting point

Item under review: CC#CC(=O)N[C@H]1CC[C@H](CCN2CCN(c3nccc4c3OCC4)CC2)CC1 . Reported melting point?
176 °C

Another compound to check: CC1CC2C3CC(F)C4=CC(=O)C=CC4(C)C34OC4CC2(C)C1(O)C(=O)CO (stereo not drawn)
241 to 242 °C

Another: O=Cc1ccc(N2CCC3(CC2)OCCO3)c(Br)c1
63 to 64 °C

====

metric.name: melting point

Request the reported melting point associated with Cc1cnc(-c2cc(C(F)(F)F)nn2C)nc1Oc1cc(C(F)(F)F)nn1C
113 °C

Next molecule up: CC12CCC3C(CC=C4CC(F)CCC43C)C1CCC2=O (configuration not stated)
155 to 156 °C

Another molecule: O=C(CCCCCBr)c1cc2c3c(c1)CC(=O)N3CCC2
86 to 87 °C

And for O=S(=O)(c1ccc(Cl)cc1)N1CCC2(C=Cc3ccccc32)CC1 ?
179 to 181 °C

Note, next up: CCc1cccc(CC)c1NC(=O)c1c2n(c(C)cc1=O)CCCC2
134 to 137 °C

Same again, this time with O=C1C=c2c(c3[nH]c4c(c3c3c2=CN=C3)CCCC4)C1
> 300 °C

Another molecule to look at: CC1Nc2ccc(-c3cccc(F)c3)cc2C(C)(C)O1 (configuration not stated)
139 to 140 °C
